Numbers sourced from the domain aggregation screens of Martell et al. (2025).

experiment: soluble fraction after stress (log2 fold change); higher = more stays soluble; pooled small domains, quantitative proteomics; conditions: stress: 50 degC
# if value of soluble fraction (log2) reaches -0.2, tag rule met; if it stays below, tag rule not met

# example entries with known answers
HMINLGDLEVGHTYHTRMPILQNDLKYSHKSPIQIVAEHSIVYGVRVYIGFLNEHRVLVTADDV rule met
HMTEEVIIQNYIGKNFNDVRDELEAKGITVDEPNMKYSDEFKENTIMAQSIKPGQPLKPGGFNSIKFDVS rule met

## Task Can "HMQQYLDAYDKALAFGIAMNKLPSYENLTLDDKEDVDKLKEIYDGMSNYEKTFVAKDFTDKLDRYVKRIE" be said to have soluble fraction (log2) at or above -0.2?
## Result rule met

## Task Given "HMEATVGSRVRLARIGLTLTQKQLAQAVGVSANHLAMVERGSKHASEDLLQRIATATHTTYEWLMGTSEHQ" , state whether its soluble fraction (log2) is at least -0.2.
## Result rule not met

## Task Decide: soluble fraction (log2) of "HMTINPFSTLAVRELEILHYLLNGHRTKEIATNLGLKMNTVSTIKSNIFEKVKADSFTHLLQLAHVHQIS" >= -0.2?
## Result rule not met

* * *

Please respond with reported soluble fraction (log2) for every item in the list.
assay: soluble fraction after stress (log2 fold change); higher = more stays soluble; pooled small domains, quantitative proteomics; conditions: stress: 50 degC
Give bare numbers.

HMSLDAAAVASKLIKRLSKSPGRRFALDDLAVDVGLPHEQGRPLVRSALELLVRTQQAVEGPPNVFRLFF -1.57
HMSQIQIKLDQAIMQLPEKQRFVFMLRYFEELPYEKIAQITETSIGGAKANFHQALKKMQEIIQ -2.96
HMNEDFSEIIAAVKKFAVDNLSLSTLSDEELEEQIKTITDNMIGNRYVSIKNRVDIAQQVFSSIR -0.0581
HMIKNKDRIQYTLAHRKAFRKIEKELLGYNTFRSLFHDLDKVFLYPFFDYKKVHNFHRNHAHH 0.199
HMDVMNEIQQKAFDIYIQSASLKNDFTPISERALAKKLHDMGLKSSMSAIGRWKKKFGWVQSLQNKVTLA -0.128

Consider the following items and state reported soluble fraction (log2) for each.
1. HMSDHKNANFTKVVKVAQELLQDEDDKAGITPTLIEEKISAVLAMNRRWAEGLDRAAVADELIRRFSIW
2. HMKELLQEMIMDILRAIASPNIDIKRKTLDLVLDLITPRNIDNVTGMLKTEVVKSQSENTSDVG

## Result
1: -0.42; 2: -0.623

* * *

experiment: soluble fraction after stress (log2 fold change); higher = more stays soluble; pooled small domains, quantitative proteomics; details: stress: 50 degC
reported endpoint: soluble fraction (log2)
Answers are plain numbers.

Example sequences with recorded soluble fraction (log2):
HMNIAAVIGQTGVLQDDLKAGEQGTVKADNKLWTAVLAEGEEAVKKEERVDIVAVEGVKLIVRRNI 0.0397
HMAEQLGNSRTANMVMLGAMIERTGVISIDSAMEALKATFGPKKEHLLPINRQAMEAGAAAARAV 0.303
HMGGFSVTAEAFDGTPEVGKTVGFTAGSTKIKVEDTKGDATFGTILEKETVGFGEGKYTYFYIGL -0.223
HMSSKTKVEDLGLSTRTLNALIGGSIKTAGGLTRKSESDLLSLDGLGEKGITEIKEALENIGLSLK 0.215
HMQDTQAEEGETLLDALRRIHPESSTGTLRRMLTQGRVQLDGDSVHAAKTVLSAGQRVEVVAR 0.0446

Could you report soluble fraction (log2) for every entry in the following list?
1. HMDIEHREMKLQKLVITADSPLVGKTLKESNVRQRYNFMVVGVEEGQKNLTMINPNRRFEVGDIVWVVGEE
2. HMDTSADEVKQLIASFVEQEDKRKPLSDQKIVELLAEKEQKISRRTVAKYRDALNIPSSSKRKRF

## Result
-0.0892
0.0434

Each sequence below has a reported value. Please supply its soluble fraction (log2).
1. HMEARYQLREVSLDGLRSGMILNADVLSTDGVLMARKGLEVSGLLRSRLEAFAKMERIEPTFKVLVPIAPP
2. HMQETALANFETNEGVQKVKQYVQENVPSLRGSNIVGVWTSYTPEGLTNYRTRFLTQDGQFVEVNLAYQ
3. HMWKSEAGKKIIESLAQKYNKSNAQIILRWHIQMGYIVIPGARSENHIKENINIFDFKLTNEEINNILKLN
4. HMSGRPPTYTAEERSAVIAAALSRPADLGLPFASWTLDRLVAYLGEKGIGMKRSRMSEVLLAEGLKW
5. HMSYPEIFQSLTEREQKIADMIAEHLSNKEIAEKMFLSEGTIKQYINQIYSKLQITGDIRNKRKQLIELFH
6. HMEELTPLQKYVFDYESDISDEVDMRAIKGLENANDVYDYYANVRGWEGDPDLEDDLDNIYRQVKARFA

## Result
[-0.389, 0.036, -0.345, -1.25, -1.16, 0.0161]

Below are 3 sequences. Give each one its soluble fraction (log2).
1. HMALDSQEVGYNIEARGARPVVAQLGKAGQFSAVENSIRLGDDNWIALAPKLAGGGNAGFTAGIKSALS
2. HMQGYELKMYVTPDTKYSVAVYDAKNEMVSYTMGFSAKAPFGQEGEVLETVKLEFDKLAVGNYELKYWI
3. HMETWDQAYETIKQNILNLTYPPGMPLTEAKLAEELGMSRSPVRTALRMLQTDGLIVTDYYKSMTVKEI

## Result
0.0371
0.314
-1.71

Provide the reported soluble fraction (log2) of each entry below, same order.
1. HMEQYYVFFAGGMTIGTKEWYESILPENIATSYDDILEGKMMPASLEQIEFYNSHKDYDLYHLFYML
2. HMWNLPDPVVRPEGNVTVYENFKNTVEVLNREADLVLKFLQNEFGTSANIDDTGRARLTGSFSTDRVSSVI

## Result
1: -4.11; 2: -0.214

* * *

assay: soluble fraction after stress (log2 fold change); higher = more stays soluble; pooled small domains, quantitative proteomics; settings: stress: 50 degC
Exercise: for every item that follows, state its recorded soluble fraction (log2).
One number for each entry.

HMHLLGASIAAYRKKAGMTQEDLGRALFVSGQAVSRWERGGTPDSDMLPKIADVLGISLDTLFGRS -0.559
HMRMSRSARLFDLLHILRSHRRAVSGQALAQQLGISIRTLYRDIASLQAQGAKIEGEPGVGYMLKP -0.947
HMNMDLGHSISKLRTDANLTQEKFAQILNVSRQTVQKWEYGEALPDIHNIIKIAKFFNISLDALVLRS -0.159

Dear colleague, could you send me soluble fraction (log2) for each of the items below? Thanks.
1. HMISAADLQTYLKGMDYPAGREDLVAHAQRNNAPESVITILQGFSDRTYRSAAEVSEEFGRE
2. HMNEQVAVVSGSQVNVRSGPGTTSAVVGQVSKGDNLPVLNQSGDWYQIKLPGGNAGWVAGWLVSLRPTT
3. HMGQEEKDIFLKLINISGIGPKLALNILSGIEASELEEAVRNTNVTRLSMVPGIGQKTALRIIMELSDKLE

## Result
[0.194, -0.0873, -0.432]

## Task Please give the measured soluble fraction (log2) for this sequence: "HMGTSFKITFYKDAFQVDDGPIRMLNDPANQKFVDEVSQGYAPKELIGQGGKAPEIDIIDKRSENAPT"
## Result 0.128

* * *

test: soluble fraction after stress (log2 fold change); higher = more stays soluble; pooled small domains, quantitative proteomics; conditions: stress: 50 degC
Hi there, I'd appreciate the recorded soluble fraction (log2) for every entry that follows.
One number for each entry.

HMQLVPGIGRLSARELEVFTLIGRGLGTSEIGKKLGVSAYTVQTHRNHIKEKLNLPNAAAITYWAIQWAHG -2.14
HMSGAKLLAPVTGTLLRYTVAEGTKVSEGQTVIMLESMKMELEINAHKAGVIHFTAAAGAQVAEGDSLAEI -0.52
HMDPSKLVEVQEPVSMKALSEGLGIKVTELIATFAFKLKIGGKNINSMLSNDEVELVALDLERNIKVV 0.164
HMNGVPDMSPVPEGARNSTLHAWAFGRLKNHPDNETGIREDLFRRGHASGLQDAELDQIWKSIKRTL 0.0847
HMEYKTGIINTNKVRVRNAADADATVIFAINKDIKVKILAEENGFYKIGVSVKNRGNGEDLIGFVKKELIT -0.631

Count: 2. Required value per item: soluble fraction (log2).
1. HMETWKLYKRAYKKYYARYMKGNMSEADFKAWATQAAADRDAAIEQITPEIDAALKAQIIEQLREKLNR
2. HMDIYLDEVNRKILHLLSQGIKTRSLREYINLSMSAIEKRKKHMKELFLVEDGKDETLLNEARNKGF

## Result
1. -0.856
2. -1.43
